These measurements were taken from patent US20140072563A1.

- EXPERIMENTAL SYSTEM: T1, hErbB3.hFc (soluble dimeric human ErbB3 extracellular domain fused to human Fc) (human)
- T1 construct: called dimeric
- T1 sequence (chain, as listed by the source limits assumed): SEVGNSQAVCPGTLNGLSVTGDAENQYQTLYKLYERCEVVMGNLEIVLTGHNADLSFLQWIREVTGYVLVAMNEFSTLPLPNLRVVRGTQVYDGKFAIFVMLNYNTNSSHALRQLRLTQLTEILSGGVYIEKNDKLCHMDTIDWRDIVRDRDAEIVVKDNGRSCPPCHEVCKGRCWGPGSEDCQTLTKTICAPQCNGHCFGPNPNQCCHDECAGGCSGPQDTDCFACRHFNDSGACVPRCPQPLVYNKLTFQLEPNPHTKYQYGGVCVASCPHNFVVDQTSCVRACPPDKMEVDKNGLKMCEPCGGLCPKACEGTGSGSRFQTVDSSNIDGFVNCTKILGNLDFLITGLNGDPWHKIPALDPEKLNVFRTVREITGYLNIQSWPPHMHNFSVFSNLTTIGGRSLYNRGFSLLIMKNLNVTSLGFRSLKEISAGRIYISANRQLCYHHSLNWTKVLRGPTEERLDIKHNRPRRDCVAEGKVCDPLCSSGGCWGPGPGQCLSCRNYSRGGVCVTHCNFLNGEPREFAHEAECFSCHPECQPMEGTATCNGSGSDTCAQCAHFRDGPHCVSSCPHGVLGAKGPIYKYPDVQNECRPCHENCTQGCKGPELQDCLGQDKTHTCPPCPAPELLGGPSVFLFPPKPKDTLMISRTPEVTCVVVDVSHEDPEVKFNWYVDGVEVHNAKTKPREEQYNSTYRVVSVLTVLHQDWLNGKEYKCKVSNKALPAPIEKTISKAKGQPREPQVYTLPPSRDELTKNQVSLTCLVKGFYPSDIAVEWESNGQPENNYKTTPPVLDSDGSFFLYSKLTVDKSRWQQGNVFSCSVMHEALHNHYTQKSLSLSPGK
- MEASUREMENT PROTOCOL: SPR (Biacore), 25 C, mAb capture format
REPORTED ENDPOINT: kon (M⁻¹ s⁻¹)
Give a bare numeral; the unit M⁻¹ s⁻¹ is implied.

Use the examples below as a reference point.
H2M1829N (antibody, V domains shown, Hybridoma chimeric antibody: human variable domains, mouse IgG2 Fc (H2M prefix)) VH: EVQLVESGGGVVRPGGSLRLSCVASGFTFDDYGMSWVRQAPGKGLECVSGINWNGGSTDYADSVKGRFTISRDNAKNSLYLQMNSLRAEDTALYHCARDGGDWDYFDLWGRGTLVTVSS VL: EILMTQSPATLSVSPGERATLSCRASQSVSSNLAWYQQKPGQAPRLLIYGASTRATGIPARFSGSGSGTEFTLTISSLQSEDFAIYYCQEYNDWPLTFGGGTKVEIK | 436000
H1M1940N (antibody, V domains shown, Hybridoma chimeric antibody: human variable domains, mouse constant domains (H1M prefix, mouse Fc)) VH: QVQVVESGGGVVQPGRSLRLSCAASGFTFSDYGMHWVRQAPGKGLEWVAIISYDGSNKYYADSVKGRFTVSRDNSKNTLYLQLDSLRPEDAAVFYCAREGAFNLDYYAMDVWGQGTTVTVSS VL: AIQMTQSPSSLSASVGDRVTITCRASQDIRNDLGWYQQKPGKAPNLLIYAASSLQSGVPSRFSGSGSGTDFTLTISSLQPEDFATYYCLQDSNYPLTFGGGTKVEIK | 460000

Attention now turns to another entry.
May I ask what kon has been recorded for H2M1936N (antibody, V domains shown, Hybridoma chimeric antibody: human variable domains, mouse IgG2 Fc (H2M prefix)) VH: EMQLVESGGGLVQPDRSLRLSCAASGFNFDNYAIHWVRQAPGKGLEWVSGISWNSGNIGYADSVKGRFTISRDNAKNSLFLLMNSLRPDDSALYYCTRGYNWNALSPMDVWGQGTTVTVSS VL: DIQMTQSPSSLSASVGDRVTVTCRASQGISNYLAWYQQKPGKVPKLLIYAASTLQSGVPSRFSGSGSGTDFTLTISSLQPEDVASYYCQNYNSAPMTFGQGTKVEIK ?
64100
